Biological target: RORγt-LBD (Homo sapiens)
Experiment: Time-resolved fluorescence resonance energy-transfer assay (TR-FRET), co-activator peptide recruitment
Type: biochemical
Set-up: unit not given here
Conditions: upper activation limit; His-RORγt-LBD, SRC peptide
measurement-kind: TR-FRET Biochemical Amax

CCOC(=O)CN1CCN2c3ccc(/C=C/c4c(Cl)cccc4C(F)(F)F)cc3N(S(=O)(=O)c3cccc(C(F)(F)F)c3)C[C@@H]2C1 | 0.72
C[C@]1(OCCC(=O)O)CCN2c3ccc(-c4cc(F)cc(OC(F)F)c4)cc3N(S(=O)(=O)c3cccc(C(F)(F)F)c3)C[C@@H]2C1 | 0.51
NC(=O)N1CCN2c3ccc(-c4cc(F)cc(OC(F)F)c4)cc3N(S(=O)(=O)c3cccc(C(F)(F)F)c3)C[C@@H]2C1 | 0.69
CC(C)(C)OC(=O)C(C)(C)N1CCN2c3ccc(-c4cc(F)cc(OC(F)F)c4)cc3N(S(=O)(=O)c3cccc(C(F)(F)F)c3)C[C@@H]2C1 | 0.77
C/C(=C\c1ccc2c(c1)N(S(=O)(=O)c1cccc(C(F)(F)F)c1)C[C@@H]1CN(C(C)(C)C(=O)O)CCN21)c1c(F)cccc1Cl | 0.71
C/C(=C\c1ccc2c(c1)N(S(=O)(=O)c1cccc(C(F)(F)F)c1)C[C@@H]1CN(C3COC3)CCN21)c1c(F)cccc1Cl | 0.93

* * *

Molecular target: RORγt-LBD (Homo sapiens)
Sequence (P51449 269-508 limits assumed): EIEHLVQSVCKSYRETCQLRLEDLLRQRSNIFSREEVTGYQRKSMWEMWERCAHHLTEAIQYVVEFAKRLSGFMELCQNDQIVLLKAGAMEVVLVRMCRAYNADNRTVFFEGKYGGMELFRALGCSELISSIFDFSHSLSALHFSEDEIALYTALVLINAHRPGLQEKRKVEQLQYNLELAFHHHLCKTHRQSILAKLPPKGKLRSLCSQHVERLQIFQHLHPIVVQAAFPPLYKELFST
Experiment: Time-resolved fluorescence resonance energy-transfer assay (TR-FRET), co-activator peptide recruitment
Assay type: biochemical
Set-up: unit not given here
Details: upper activation limit; His-RORγt-LBD, SRC peptide
measurement-kind: TR-FRET Biochemical Amax

CC(=O)N1CCN2c3ccc(/C=C/c4c(Cl)cccc4C(F)(F)F)cc3N(S(=O)(=O)c3cccc(C(F)(F)F)c3)C[C@@H]2C1 | 0.89
C/C(=C\c1ccc2c(c1)N(S(=O)(=O)c1cccc(C(F)(F)F)c1)C[C@@H]1CN(C(N)=O)CCN21)c1c(F)cccc1Cl | 0.69
O=S(=O)(c1cccc(C(F)(F)F)c1)N1C[C@@H]2CCCN2c2ccc(-c3cc(F)cc(OC(F)F)c3)cc21 | 1.25
NC(=O)CN1CCN2c3ccc(/C=C/c4c(Cl)cccc4C(F)(F)F)cc3N(S(=O)(=O)c3cccc(C(F)(F)F)c3)C[C@@H]2C1 | 1.10
CN1CCN(S(=O)(=O)c2cccc(C(F)(F)F)c2)c2cc(-c3cc(F)cc(OC(F)F)c3)ccc21 | 1.61
CS(=O)(=O)CCOC1CCN2c3ccc(-c4cc(F)cc(OC(F)F)c4)cc3N(S(=O)(=O)c3cccc(C(F)(F)F)c3)C[C@@H]2C1 (stereo partly drawn) | 0.64

* * *

Target: RORγt-LBD (Homo sapiens)
Assay: Time-resolved fluorescence resonance energy-transfer assay (TR-FRET), co-activator peptide recruitment
Settings: His-RORγt-LBD 30 nM, SRC peptide 500 nM; agonistic activity; averages of one or more measurements; read-out: TR-FRET Biochemical EC50/
measurement-kind: EC50 (nM)

O=S(=O)(c1cccc(C(F)(F)F)c1)N1C[C@@H]2CN(C[C@@H](O)CO)CCN2c2ccc(-c3cc(F)cc(OC(F)F)c3)cc21 [Example 39] | 33.6
C/C(=C\c1ccc2c(c1)N(S(=O)(=O)c1cccc(C(F)(F)F)c1)C[C@@H]1CN(CC(=O)O)CCN21)c1c(F)cccc1Cl [Example 21] | 17.6
O=C(O)[C@H]1CCN2c3ccc(-c4cc(F)cc(OC(F)F)c4)cc3N(S(=O)(=O)c3cccc(C(F)(F)F)c3)C[C@@H]2C1 [Example 116] | 43.4
CCOC(=O)C(=O)N1CCN2c3ccc(/C=C(\C)c4c(F)cccc4Cl)cc3N(S(=O)(=O)c3cccc(C(F)(F)F)c3)C[C@@H]2C1 [Example 57] | 6.54
O=S(=O)(c1cccc(C(F)(F)F)c1)N1C[C@@H]2CN(C[C@H](O)CO)CCN2c2ccc(-c3cc(F)cc(OC(F)F)c3)cc21 [Example 40] | 13
CC(=O)N1CCN2c3ccc(/C=C(\C)c4c(F)cccc4Cl)cc3N(S(=O)(=O)c3cccc(C(F)(F)F)c3)C[C@@H]2C1 [Example 15] | 25
COC(=O)CN1CCN2c3ccc(/C=C(\C)c4c(F)cccc4Cl)cc3N(S(=O)(=O)c3cccc(C(F)(F)F)c3)C[C@@H]2C1 [Example 44] | 23.5
NC(=S)N1CCN2c3ccc(/C=C/c4c(Cl)cccc4C(F)(F)F)cc3N(S(=O)(=O)c3cccc(C(F)(F)F)c3)C[C@@H]2C1 [Example 65] | 8.4
C/C(=C\c1ccc2c(c1)N(S(=O)(=O)c1cccc(C(F)(F)F)c1)C[C@@H]1CN(C(=O)CC#N)CCN21)c1c(F)cccc1Cl [Example 30] | 8.34
O=S(=O)(c1cccc(C(F)(F)F)c1)N1C[C@@H]2CN(C(CO)CO)CCN2c2ccc(-c3cc(F)cc(OC(F)F)c3)cc21 [Example 70] | 64.2
O=S(=O)(c1cccc(C(F)(F)F)c1)N1CC2CSCCN2c2ccc(-c3cc(F)cc(OC(F)F)c3)cc21 (stereo not shown) [Example 100] | 91.7
COC(=O)C(C)N1CCN2c3ccc(/C=C(\C)c4c(F)cccc4Cl)cc3N(S(=O)(=O)c3cccc(C(F)(F)F)c3)C[C@@H]2C1 (stereo partly shown) [Example 23] | 17.2
CC(C)(C(=O)O)N1CCN2c3ccc(-c4cc(F)cc(OC(F)F)c4)cc3N(S(=O)(=O)c3cccc(C(F)(F)F)c3)C[C@@H]2C1 [Example 54] | 20.1
